Where do the numbers come from? From ChEMBL document CHEMBL5724806.

test-description: The drug is tested on Lactobacillus ruminis strain: ATCC25644 for biotransformation under anaerobic condition. The drug concentrations were measured over 6 timepoints collected between 0 and 12 hours of incubation by liquid-chromatography-coupled mass spectrometry (LC–MS)
Format: ADME
Parameters: dose 5 uM, timepoint 0, 1.5, 3, 6, 9, 12 hours
stated-conditions: ligilactobacillus ruminis, 5 µM
quantity-kind: Bacterial Biotransformation

>  <item-smiles>
CO[C@H]1C[C@@H]2CC[C@@H](C)[C@@](O)(O2)C(=O)C(=O)N2CCCC[C@H]2C(=O)O[C@H]([C@H](C)C[C@@H]2CC[C@@H](O)[C@H](OC)C2)CC(=O)[C@H](C)/C=C(\C)[C@@H](O)[C@@H](OC)C(=O)[C@H](C)C[C@H](C)/C=C/C=C/C=C/1C

>  <endpoint-result>
Compound NOT metabolized

$$$$
>  <item-smiles>
CO[C@H]1C[C@@H]2CC[C@@H](C)[C@@](O)(O2)C(=O)C(=O)N2CCCC[C@H]2C(=O)O[C@H]([C@H](C)C[C@@H]2CC[C@@H](OCCO)[C@H](OC)C2)CC(=O)[C@H](C)/C=C(\C)[C@@H](O)[C@@H](OC)C(=O)[C@H](C)C[C@H](C)/C=C/C=C/C=C/1C

>  <endpoint-result>
Compound NOT metabolized

$$$$

###

test-description: The drug is tested on Clostridium bolteae strain: DSM15670 for biotransformation under anaerobic condition. The drug concentrations were measured over 6 timepoints collected between 0 and 12 hours of incubation by liquid-chromatography-coupled mass spectrometry (LC–MS)
Format: ADME
Parameters: dose 5 uM, timepoint 0, 1.5, 3, 6, 9, 12 hours
stated-conditions: enterocloster bolteae, 5 µM
quantity-kind: Bacterial Biotransformation

>  <compound>
COc1c(C)c2c(c(O)c1C/C=C(\C)CCC(=O)OCCN1CCOCC1)C(=O)OC2 [MYCOPHENOLATE MOFETIL]

>  <quantity-kind>
Bacterial Biotransformation

>  <endpoint-result>
Compound NOT metabolized

$$$$
>  <compound>
CCOC(=O)[C@H](CCc1ccccc1)N[C@@H](C)C(=O)N1[C@H](C(=O)O)C[C@@H]2CCC[C@@H]21

>  <quantity-kind>
Bacterial Biotransformation

>  <endpoint-result>
Compound NOT metabolized

$$$$
>  <compound>
C[C@]12CCC(=O)C=C1CC[C@@H]1[C@@H]2C(=O)C[C@@]2(C)[C@H]1CC[C@]2(O)C(=O)CO [CORTISONE]

>  <quantity-kind>
Bacterial Biotransformation

>  <endpoint-result>
Compound NOT metabolized

$$$$
>  <compound>
CCOc1nc2cccc(C(=O)O)c2n1Cc1ccc(-c2ccccc2-c2nnn[nH]2)cc1

>  <quantity-kind>
Bacterial Biotransformation

>  <endpoint-result>
Compound NOT metabolized

$$$$
>  <compound>
C[C@]12C=CC(=O)C=C1CC[C@@H]1[C@@H]2C(=O)C[C@@]2(C)[C@H]1CC[C@]2(O)C(=O)CO [PREDNISONE]

>  <quantity-kind>
Bacterial Biotransformation

>  <endpoint-result>
Compound NOT metabolized

$$$$
>  <compound>
CCCC1O[C@@H]2C[C@H]3[C@@H]4CCC5=CC(=O)C=C[C@]5(C)[C@H]4[C@@H](O)C[C@]3(C)[C@]2(C(=O)CO)O1 (some centres undefined) [BUDESONIDE]

>  <quantity-kind>
Bacterial Biotransformation

>  <endpoint-result>
Compound NOT metabolized

$$$$
>  <compound>
COc1ccc([C@@H]2Sc3ccccc3N(CCN(C)C)C(=O)[C@@H]2OC(C)=O)cc1 [DILTIAZEM]

>  <quantity-kind>
Bacterial Biotransformation

>  <endpoint-result>
Compound NOT metabolized

$$$$
>  <compound>
Cn1cnc([N+](=O)[O-])c1Sc1ncnc2nc[nH]c12 [AZATHIOPRINE]

>  <quantity-kind>
Bacterial Biotransformation

>  <endpoint-result>
Compound NOT metabolized

$$$$
>  <compound>
C[C@]12C=CC(=O)C=C1CC[C@@H]1[C@@H]2[C@@H](O)C[C@@]2(C)[C@H]1CC[C@]2(O)C(=O)CO [PREDNISOLONE]

>  <quantity-kind>
Bacterial Biotransformation

>  <endpoint-result>
Compound NOT metabolized

$$$$
>  <compound>
COc1c(C)c2c(c(O)c1C/C=C(\C)CCC(=O)O)C(=O)OC2 [MYCOPHENOLIC ACID]

>  <quantity-kind>
Bacterial Biotransformation

>  <endpoint-result>
Compound NOT metabolized

$$$$

Note to self: Bacterial Biotransformation recorded for NS(=O)(=O)c1cc(C(=O)O)c(NCc2ccco2)cc1Cl [FUROSEMIDE] was Compound NOT metabolized

Note to self: Bacterial Biotransformation recorded for C[C@@H](NCCCc1cccc(C(F)(F)F)c1)c1cccc2ccccc12 was Compound NOT metabolized

Note to self: Bacterial Biotransformation recorded for CCC(C)(C)C(=O)O[C@H]1C[C@@H](C)C=C2C=C[C@H](C)[C@H](CC[C@@H]3C[C@@H](O)CC(=O)O3)[C@H]21 [SIMVASTATIN] was Compound NOT metabolized
